Ref: PubChem BioAssay (NCI)

Tested on: LOX IMVI melanoma
Assay: NCI tumour cell line growth inhibition, 48 h; in the data active = GI50 below about 0.43 µM; inactive = the rest
Outcomes: active, inactive

Smiles Notation	Label Value
CCOC(=O)C(Cc1ccc(CCCC(=O)NCCC(=O)Nc2ccc3nc(C)sc3c2)cc1)C(=O)OCC	inactive
Cc1ncc(C(=O)Nc2ccc(CN3CCN(C)CC3)c(C(F)(F)F)c2)cc1C#Cc1cnc(N)c2ccncc12	active
O=C1C=CC(=O)c2cc3cc(CBr)ccc3cc21	inactive
Cc1ccc(NC(=O)CC2CC2)cc1-c1ccc(C(=O)NCC2CC2)cc1	inactive
CC[C@H]1[C@@H]2C=C[C@@H]3[C@H]4C/C=C\C(=O)NCCC[C@@H]5NC(=O)/C(=C(O)/C=C/[C@@H]4C[C@@H]3[C@H]2C[C@H]1C)C5=O	inactive
COc1cc2c3c(n(C)c(=O)c2cc1OC)-c1cc2c(cc1/C3=C\CN)OCO2	active
COc1cc(Cn2c(-c3ccccc3)c(Cl)c3c2-c2oncc2CC3)cc(OC)c1	inactive
Nc1c(C(=O)Nc2ccncc2)sc2nc3c(cc12)CCCCCCCC3	inactive
CN(C)CC[PH+](c1ccccc1)c1ccccc1.CN(C)CC[PH+](c1ccccc1)c1ccccc1.[Cl-].[Pd+2]	inactive
O=C(Nc1ccncc1)C(=O)c1cn(S(=O)(=O)c2ccc(F)cc2)c2ccccc12	inactive

---

Overview of reported TGI across a group of compounds:
System: SK-OV-3 ovarian
Experiment: NCI tumour cell line growth inhibition, 48 h

Compound	TGI
C=CCn1c(C)nc2ccc(Nc3nc(Nc4ccc5nc(C)n(CC=C)c5c4)c4ccccc4n3)cc21	3.09 µM
CS(=O)(=O)CCNCc1nc(-c2ccc3ncnc(Nc4ccc(OCc5cccc(C(F)(F)F)c5)cc4)c3c2)cs1	> 21.6 µM
C/C=C(/C)C(=O)O[C@@H]1CCN2CC[C@H](COC(=O)/C(=C/C)CO)C12 (stereo not given in full)	> 100 µM
COc1ccc2cc(/C=N/NC(=O)Nc3ccccc3)ccc2c1	> 100 µM
CCCCCCc1cc2cc(C(=O)Nc3ccccc3)c(=N)oc2cc1O	> 26.5 µM
COc1ccc(S(=O)(=O)c2nnc(S(=O)(=O)Cc3ccccc3)s2)cc1	44.6 µM
Cc1ccc(-n2c(N)c(C#N)c3[nH]nc(N)c3c2=O)cc1	> 100 µM
O=c1c(/C=C/c2c(O)ccc3ccccc23)nnc2sc(-c3cccc(Br)c3)nn12	> 100 µM
Cn1c(=O)c(-c2ccccc2)c(N=[N+]=[N-])c2ccccc21	> 100 µM
Cn1ccc(C(=O)NCCN(CCNC(=O)c2ccn(C)c(=O)c2O)CCNC(=O)c2cccc(=O)n2O)c(O)c1=O	> 100 µM

---

Test system: SK-MEL-2 melanoma
Test: NCI tumour cell line growth inhibition, 48 h
Overview of recorded GI50 for various molecules

Molecule	GI50
CN1C(=O)N(C)C2C1NN=c1s/c(=C\c3ccc(Cl)cc3Cl)c(=O)n12 (stereo not given)	11.7 µM
C=C(Cl)C(Br)(CCl)CCC(Br)C(C)(C)Cl (stereo not given)	3.14 µM
CC(C)Oc1ccc2cc(-c3nn(CC4CCNCC4)c4ncnc(N)c34)ccc2c1	10.8 µM
CNCC#Cc1c(F)ccc2c1/C(=C/c1[nH]ccc1OC)C(=O)N2	0.0799 µM
CS(=O)(=O)CCNCc1nc(-c2ccc3ncnc(Nc4ccc(OCc5cccc(C(F)(F)F)c5)cc4)c3c2)cs1	8.7 µM
